# SYSTEM UNDER TEST: P. aeruginosa PGDH (SerA) (Pseudomonas aeruginosa, UniProt Q9I6H5)
# Construct: full-length ORF, N-terminal GST fusion (pGEX-6P-1), GST cut off on resin by protease, expressed in E. coli BL21, 44 kDa
# Sequence (Q9I6H5 1-409): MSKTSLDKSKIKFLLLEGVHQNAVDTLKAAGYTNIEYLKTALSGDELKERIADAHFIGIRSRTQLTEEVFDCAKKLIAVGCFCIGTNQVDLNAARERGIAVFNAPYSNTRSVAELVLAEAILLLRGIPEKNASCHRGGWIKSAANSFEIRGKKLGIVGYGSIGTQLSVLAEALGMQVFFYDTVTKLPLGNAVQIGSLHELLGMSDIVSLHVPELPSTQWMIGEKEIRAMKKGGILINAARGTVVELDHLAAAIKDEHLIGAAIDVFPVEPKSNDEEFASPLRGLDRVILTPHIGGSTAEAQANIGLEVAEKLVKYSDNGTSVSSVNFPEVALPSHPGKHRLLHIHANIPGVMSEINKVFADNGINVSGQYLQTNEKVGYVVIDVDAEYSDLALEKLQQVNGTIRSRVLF
# ASSAY TEXT: NADH formation at […] nm
ATTRIBUTE MEASURED: pIC50
Friendly reminder that pIC50 comes from taking -log10 of the concentration in mol/L.

IN: Given N[C@@H](CO)C(=O)O [L-serine] , state its recorded pIC50.
OUT: 3.20

IN: Given N[C@H](CO)C(=O)O [D-serine] , state its recorded pIC50.
OUT: 1.12
